# system-tested: FRMPD2_3, Q68DX3
# Sequence (Q68DX3 1073-1166): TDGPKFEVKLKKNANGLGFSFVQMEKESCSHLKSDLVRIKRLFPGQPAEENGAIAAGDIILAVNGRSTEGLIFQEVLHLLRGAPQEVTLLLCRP
# assay-remarks: holdup assay
# Set-up: key: below the threshold = too weak to quantify, mostly under pKd 3.1 to 4
# condition: plain residues with an end cap or a label only (N-terminal biotin on a linker: ado-ado)
metric-name: pKd

• TKDKVQETQI [LRRC4, Q9HBW1] = below the threshold
• DLLGGGSDSI [TNRC6B, Q9UPQ9] = 3.51
• VYEVPVETKF [SLC26A3, P40879] = 3.52
• PSDSVGKDVF [EGLN1, Q9GZT9] = below the threshold
• SQDPKKPSRV [CBY2, Q8NA61] = below the threshold
• SRPHTNETSL [MCC, P23508] = below the threshold
• NISARRFTLC [FAM167B, Q9BTA0] = below the threshold
• EFKQTSSFLV [JAM1, Q9Y624] = below the threshold

Just for reference, paper PMC9482650 is where these values come from.
